Assay: chemical genetic growth profiling, strain panel (AID 1159580);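 further: tested at 20 µM; growth read once vehicle control cultures reached saturation at 30 °C; 1 = growth at the plate median or of vehicle wells; lower values mean less growth of the strain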
Details: S. cerevisiae deletion strains, growth OD, locus YMR231W, strain pep5
Out of some 5,500 compounds screened, about 2,000 (36%) were called active. About 18% were inconclusive and are not listed. No stated cut-off is given here; in the data, active means normalized growth mostly below about 0.91 (no sharp cut-off); inconclusive means no clear call, values can overlap the other calls; inactive means mostly above about 0.92. Some of the results follow.
Reply using exactly one outcome from yes (1) for active, no (0) for inactive

QUERY: Outcome? CC1=C(/C=C/C(C)=C/C=C/C(C)=C/C=C/C=C(C)/C=C/C=C(C)/C=C/C2=C(C)C(=O)CCC2(C)C)C(C)(C)CCC1=O
RESULT: no (0)

QUERY: Record lookup: outcome of this test for CCCCCCCCCCCCCCCC[N+](C)(C)C ?
RESULT: yes (1)

QUERY: // outcome(item) with item = Oc1cc(Cl)ccc1Oc1ccc(Cl)cc1Cl
RESULT: yes (1)

QUERY: I'd appreciate the recorded outcome for CC(N)C(=O)OC(C)(C)Cc1ccc(Cl)cc1 (centres undefined) from this test.
RESULT: no (0)

QUERY: How did this test come out for CC(C)OC(=O)C(C)(C)Oc1ccc(C(=O)c2ccc(Cl)cc2)cc1 ?
RESULT: no (0)

QUERY: Look up the recorded call for c1cncc(C2CCCCN2)c1 (centres undefined) in this test.
RESULT: no (0)

QUERY: Per the records of this test, what outcome belongs to CC1=C(/C=C/C(C)=C/C=C/C(C)=C/C=C/C=C(C)/C=C/C=C(C)/C=C/C2=C(C)C(=O)C(O)CC2(C)C)C(C)(C)CC(O)C1=O (centres undefined) ?
RESULT: no (0)

QUERY: Please state the recorded outcome for this compound: C=C1C2CC[C@H]3[C@]4(C)C[C@H](OC5OC(CO)C(OS(=O)(=O)O)C(OS(=O)(=O)O)C5OC(=O)CC(C)C)C[C@@H](C(=O)O)[C@H]4CC[C@]3(C2)[C@H]1O (some centres undefined)
RESULT: no (0)

QUERY: Answer briefly: the call reported for CCOC(=O)C(C)(C)Oc1ccc(Cl)cc1 in this assay.
RESULT: no (0)
